# Tested on: pLai RLuc reporter virus
# METHOD_SUMMARY: microbe, parasite or virus in culture
# Format: cell-based, HIV
# CONDITIONS: Human immunodeficiency virus 1, 72 h, read-out: Antiviral Serum Shift RLuc CCM, CCM (RPMI media, 10% FBS, 1% P/S), 72-h incubation
pEC50: −log10 of the molar value.
Reported pEC50 by item:

- MOLECULE: "CC[C@]1(OC)CCCN2C[C@H]1n1cc(C(=O)NCc3c(F)cc(F)cc3F)c(=O)c(O)c1C2=O"
  pEC50: 9.20
- MOLECULE: "C[C@H]1CC[C@H](C)N2C[C@H]1n1cc(C(=O)NCc3ccc(F)cc3F)c(=O)c(O)c1C2=O"
  pEC50: 9.42
- MOLECULE: "O=C(NCc1ccc(F)cc1F)c1cn2c(c(O)c1=O)C(=O)N1CCc3cc(Cl)ccc3[C@@H]2C1"
  pEC50: 9.46
- MOLECULE: "O=C(NCc1ccc(F)cc1F)c1cn2c(c(O)c1=O)C(=O)N1CCC=C[C@H]2C1"
  pEC50: 9.49
- MOLECULE: "O=C(NCc1c(F)cc(F)cc1F)c1cn2c(c(O)c1=O)C(=O)N1Cc3cc(F)ccc3C[C@H]2C1"
  pEC50: 9.66
- MOLECULE: "O=C(NCc1c(F)cc(F)cc1F)c1cn2c(c(O)c1=O)C(=O)N1CCC[C@@H](F)[C@@H]2C1"
  pEC50: 9.49
- MOLECULE: "O=C(NCc1ccc(F)cc1F)c1cn2c(c(O)c1=O)C(=O)N1CCCC(F)(F)[C@H]2C1"
  pEC50: 9.07
- MOLECULE: "C[C@]1(F)CCCN2C[C@H]1n1cc(C(=O)NCc3c(F)cc(F)cc3F)c(=O)c(O)c1C2=O"
  pEC50: 9.47
- MOLECULE: "C[C@@H]1C=C[C@H](C)N2C[C@H]1n1cc(C(=O)NCc3c(F)cc(F)cc3F)c(=O)c(O)c1C2=O"
  pEC50: 9.58
- MOLECULE: "O=C(NCc1c(F)cc(F)cc1F)c1cn2c(c(O)c1=O)C(=O)N1C[C@@H]2CSc2ccccc21"
  pEC50: 9.39
- MOLECULE: "O=C(NCc1c(F)cc(F)cc1F)c1cn2c(c(O)c1=O)C(=O)N1C[C@H]2CCCc2ccccc21"
  pEC50: 9.21
- MOLECULE: "O=C(NCc1cccc(Cl)c1F)c1cn2c(c(O)c1=O)C(=O)N1Cc3cc(F)c(F)cc3C[C@@H]2C1"
  pEC50: 8.32
- MOLECULE: "C[C@]1(F)CCCN2C[C@@H]1n1cc(C(=O)NCc3c(F)cc(F)cc3F)c(=O)c(O)c1C2=O"
  pEC50: 9.69
- MOLECULE: "O=C(NCc1ccc(F)c(F)c1F)c1cn2c(c(O)c1=O)C(=O)N1CCCC[C@H]2C1"
  pEC50: 9.52
- MOLECULE: "O=C(NCc1ccc(F)cc1F)c1cn2c(c(O)c1=O)C(=O)N1CCCCC2C1 (racemic)"
  pEC50: 9.72
- MOLECULE: "C[C@H]1C=CC[C@H]2CN1C(=O)c1c(O)c(=O)c(C(=O)NCc3c(F)cc(F)cc3F)cn12"
  pEC50: 9.74
- MOLECULE: "O=C(NCc1c(F)cc(F)cc1F)c1cn2c(c(O)c1=O)C(=O)N1CC[C@@H](F)C[C@@H]2C1"
  pEC50: 9.55
- MOLECULE: "O=C(NCc1ccc(F)cc1)c1cn2c(c(O)c1=O)C(=O)N1CCCC[C@H]2C1"
  pEC50: 9.23
- MOLECULE: "O=C(NCc1c(F)cc(F)cc1F)c1cn2c(c(O)c1=O)C(=O)N1C[C@@H]2CS(=O)(=O)c2ccccc21"
  pEC50: 8.51
- MOLECULE: "O=C(NCc1ccc(F)cc1F)c1cn2c(c(O)c1=O)C(=O)N1C[C@@H]2CCC[C@@H]1C(F)F"
  pEC50: 9.39
- MOLECULE: "O=C(NCc1c(F)cc(F)cc1F)c1cn2c(c(O)c1=O)C(=O)N1CC2CCc2ccccc21 (single isomer, unassigned)"
  pEC50: 8.58
- MOLECULE: "O=C(NCc1ccc(F)cc1F)c1cn2c(c(O)c1=O)C(=O)N1CCCC[C@@]2(CF)C1"
  pEC50: 10.17
- MOLECULE: "O=C(NCc1c(F)cc(F)cc1F)c1cn2c(c(O)c1=O)C(=O)N1Cc3cc(F)c(F)cc3C[C@@H]2C1 (single isomer, unassigned)"
  pEC50: 9.01
- MOLECULE: "C[C@]12CC=CCN(C1)C(=O)c1c(O)c(=O)c(C(=O)NCc3ccc(F)cc3F)cn12"
  pEC50: 9.73
- MOLECULE: "CC1=CC[C@H]2CN(C(=O)c3c(O)c(=O)c(C(=O)NCc4c(F)cc(F)cc4F)cn32)[C@H]1C"
  pEC50: 9.33
- MOLECULE: "O=C(NCc1c(F)cc(F)cc1F)c1cn2c(c(O)c1=O)C(=O)N1CCc3ccc(Br)cc3[C@H]2C1 (single isomer, unassigned)"
  pEC50: 9.27
- MOLECULE: "C[C@H]1CC[C@H]2CN(C(=O)c3c(O)c(=O)c(C(=O)NCc4c(F)cc(F)cc4F)cn32)[C@H]1C"
  pEC50: 9.48
- MOLECULE: "C[C@H]1CC(F)C[C@H]2CN1C(=O)c1c(O)c(=O)c(C(=O)NCc3c(F)cc(F)cc3F)cn12 (stereo partly shown)"
  pEC50: 9.37

* * *

# Tested on: pLai RLuc reporter virus
# METHOD_SUMMARY: microbe, parasite or virus in culture
# Format: cell-based, HIV
# CONDITIONS: Human immunodeficiency virus 1, 72 h, read-out: Antiviral Serum Shift RLuc CCM, CCM (RPMI media, 10% FBS, 1% P/S), 72-h incubation
pEC50: −log10 of the molar value.
QUANTITY_NAME: pEC50

- COMPOUND: "O=C(NCc1c(F)cc(F)cc1F)c1cn2c(c(O)c1=O)C(=O)N1C[C@@H]2CCc2sccc21"
  QUANTITY_NAME: "pEC50"
  ASSAY_RESULT: 9.49
- COMPOUND: "O=C(NCc1c(F)cc(F)cc1F)c1cn2c(c(O)c1=O)C(=O)N1CC[C@H](O)CC[C@H]2C1"
  QUANTITY_NAME: "pEC50"
  ASSAY_RESULT: 8.67
- COMPOUND: "O=C(NCc1c(F)cc(F)cc1F)c1cn2c(c(O)c1=O)C(=O)N1CC=CC[C@H]2C1"
  QUANTITY_NAME: "pEC50"
  ASSAY_RESULT: 9.66
- COMPOUND: "O=C(NCc1c(F)cc(F)cc1F)c1cn2c(c(O)c1=O)C(=O)N1CCc3cc(F)c(F)cc3[C@@H]2C1 (single isomer, unassigned)"
  QUANTITY_NAME: "pEC50"
  ASSAY_RESULT: 8.32

* * *

# Tested on: pLai RLuc reporter virus
# METHOD_SUMMARY: microbe, parasite or virus in culture
# Format: cell-based, HIV
# CONDITIONS: Human immunodeficiency virus 1, 72 h, read-out: Antiviral Serum Shift RLuc CCM, CCM (RPMI media, 10% FBS, 1% P/S), 72-h incubation

- COMPOUND: "O=C(NCc1c(F)cc(F)cc1F)c1cn2c(c(O)c1=O)C(=O)N1Cc3ccccc3C[C@H]2C1"
  UNIT_ANNOTATION: "nM"
  EC50: 0.322
- COMPOUND: "O=C(NCc1ccc(F)cc1F)c1cn2c(c(O)c1=O)C(=O)N1CC[C@@H](F)C[C@@H]2C1"
  UNIT_ANNOTATION: "nM"
  EC50: 2.16
- COMPOUND: "O=C(NCc1c(F)cc(F)cc1F)c1cn2c(c(O)c1=O)C(=O)N1CCc3ccc(Br)cc3[C@@H]2C1 (single isomer, unassigned)"
  UNIT_ANNOTATION: "nM"
  EC50: 3.77
- COMPOUND: "O=C(NCc1c(F)cc(F)cc1F)c1cn2c(c(O)c1=O)C(=O)N1CC[C@@H](F)CC[C@H]2C1"
  UNIT_ANNOTATION: "nM"
  EC50: 0.304
